Test system: BT-549 breast
experimental-details: NCI tumour cell line growth inhibition, 48 h
quantity-kind: GI50

Some entries whose results are on file:
molecule	quantity-kind	result
CNC(=O)c1cncc(/C=C/c2c(Cl)cccc2Cl)c1	GI50	> 25 µM
COc1ccc2c(c1OC)C(=O)O[C@@H]2[C@H]1c2c(c(Br)c3c(c2OC)OCO3)CCN1C	GI50	> 100 µM
Cc1ccc(-c2c3c(N)c4c(nc3nc3c2c(C)nn3-c2ccccc2)CCC4)cc1	GI50	20.7 µM
O=C(NN1C(=O)CSC12CCC(c1ccccc1)CC2)c1[nH]c2ccc(F)cc2c1-c1ccccc1 (stereo not given)	GI50	19.9 µM
Cc1cc(Cl)ccc1Nc1nc(C(F)(F)F)ccc1C(=O)Nc1cccc(C(F)(F)F)c1	GI50	3.76 µM

Return GI50 (reported value) for this molecule: "CC1=NN(C(=O)c2nn(-c3ccc(Cl)cc3)cc2O)C(=O)C1"
0.766 µM

Give recorded GI50. "O=C1c2ccn(CCCCN(CCO)CCO)c2C(=O)c2c1c(O)c1ccccc1c2O"
20.7 µM

Sourced from PubChem BioAssay (NCI)
